Measured values drawn from patent US20240018123A1 for this set.

tested on: VCaP cells; assay: Cytotoxicity assessment (Cell-titer-glo cell viability), VCaP; details: read-out: VCaP (CC50); VCaP cells, 6 days of treatment, Cell-titer-glo, vs DMSO
measured.endpoint: log10 CC50 (log10 of the value in µM)
Note the log scale: values are log10 of CC50 expressed in µM.

Study these solved cases before continuing.
compound | log10 CC50
CC1(C)C(NC(=O)c2ccc(C#CC3CCN(CC4CCN(C(=O)C5CCN(c6ccc7nnn(C8CCC(=O)NC8=O)c(=O)c7c6)CC5)CC4)CC3)nc2)C(C)(C)C1Oc1ccc(C#N)c(Cl)c1 (centres unmarked) [Example 131] | -1.73
CC1(C)C(NC(=O)c2ccc(C#CC3CCN(CC4CCN(C(=O)CNc5ccc6nnn(C7CCC(=O)NC7=O)c(=O)c6c5)CC4)CC3)cc2)C(C)(C)C1Oc1ccc(C#N)c(Cl)c1 (centres unmarked) | -2.17
CC1(C)C(NC(=O)c2ccc(C#CC3CCN(CC4CCN(C(=O)C5CCN(c6ccc7nnn(C8CCC(=O)NC8=O)c(=O)c7c6)CC5)CC4)CC3)nc2)C(C)(C)C1Oc1ccc(C#N)c(Cl)c1 (centres unmarked) [Example 130] | -1.77
CC1(C)C(NC(=O)c2ccc(N3CC4CC3CN4C3CC4(CCN(C(=O)C5CCN(c6ccc7nnn(C8CCC(=O)NC8=O)c(=O)c7c6)CC5)CC4)C3)cc2)C(C)(C)C1Oc1ccc(C#N)c(Cl)c1 (centres unmarked) | -1.15

What value of log10 CC50 has been reported for the following compound? CC1(C)[C@H](NC(=O)c2ccc(C3CCN(CC4CCN(C(=O)C5CCN(c6ccc7nnn(C8CCC(=O)NC8=O)c(=O)c7c6)CC5)CC4)CC3)cc2)C(C)(C)[C@H]1Oc1ccc(C#N)c(Cl)c1 (some centres unmarked) [Example 52]
-1.23

###

test system: VCaP cells; experiment: Cytotoxicity assessment (Cell-titer-glo cell viability), VCaP; settings: read-out: VCaP (CC50); VCaP cells, 6 days of treatment, Cell-titer-glo, vs DMSO
measured.endpoint: CC50 (nM)
Report the figure in nM without appending any unit label.

Known CC50 results, listed for orientation:
compound | CC50 (nM)
CC1(C)[C@H](NC(=O)c2ccc(C3CCN(CC4CCN(C(=O)C5CCN(c6ccc7nnn(C8CCC(=O)NC8=O)c(=O)c7c6)CC5)CC4)CC3)cc2)C(C)(C)[C@H]1Oc1ccc(C#N)c(Cl)c1 (stereo partly shown) [Example 51] | 228
CC1(C)C(NC(=O)c2ccc(C#CC3CCN(c4ccc5nnn(C6CCC(=O)NC6=O)c(=O)c5c4)CC3)cc2)C(C)(C)C1Oc1ccc(C#N)c(Cl)c1 (stereo not shown) | 7.1
CC1(C)C(NC(=O)c2ccc(-c3cnn(C4CCN(CC5CCN(c6ccc7nnn(C8CCC(=O)NC8=O)c(=O)c7c6)CC5)CC4)c3)nc2)C(C)(C)C1Oc1ccc(C#N)c(Cl)c1 (stereo not shown) | 38
CC1(C)C(NC(=O)c2ccc(N3CCN(CC4CCN(C(=O)C5CN(c6ccc7nnn(C8CCC(=O)NC8=O)c(=O)c7c6)C5)CC4)CC3)nc2)C(C)(C)C1Oc1ccc(C#N)c(Cl)c1 (stereo not shown) | 10
CC1(C)[C@H](NC(=O)c2ccc(N3CCN(Cc4cn(-c5ccc6nnn(C7CCC(=O)NC7=O)c(=O)c6c5)nn4)CC3)cc2)C(C)(C)[C@H]1Oc1ccc(C#N)c(Cl)c1 (stereo partly shown) | 262

--- query ---
# lookup: CC50 of CC1(C)C(NC(=O)c2ccc(N3CCN(C=C4CCN(C(=O)C5CCN(c6ccc7nnn(C8CCC(=O)NC8=O)c(=O)c7c6)CC5)CC4)CC3)cc2)C(C)(C)C1Oc1ccc(C#N)c(Cl)c1 (stereo not shown)
44
